- test system: Bcl-xL, Q07817
- Sequence (Q07817 1-209): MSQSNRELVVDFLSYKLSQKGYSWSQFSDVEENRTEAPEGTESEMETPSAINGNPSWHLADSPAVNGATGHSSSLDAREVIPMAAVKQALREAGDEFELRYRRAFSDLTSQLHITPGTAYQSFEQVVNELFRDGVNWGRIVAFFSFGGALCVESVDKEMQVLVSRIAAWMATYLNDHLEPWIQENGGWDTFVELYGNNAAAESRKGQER
- assay notes: peptide SPOT array, c-Myc-tagged receptor at 1 uM or 100 nM, anti-c-Myc-Cy3
Rule: SPOT signal as a fraction of Bim BH3's signal on the same receptor and array below 0.1 gives t, anything at or above gives f.

binder | group label
KNGHREVIRQLLRAGIEINRQTKTGT [CASKIN2] | f
NGGLLEFHKSDQEIGDKNDHWFDIDP [DZIP3] | f
SGLPGLSSVDDNNFGDSINESEGIPL [MKI67] | t
VFERCELARTLKRLGMDGYRGISLAN [LYZ] | f
QEQEQHVPFDIHTYGDQLVSRFPQLN [NCAPH2] | t
GLTWDPVGKYIASQLDDRSLKVWRTL [HIRA] | f
DLSAVTLSRELQAMAEQLAENYHNTW [RYR1] | t
